Parameter Kd: see the listing below.
- assay.system: T1, PUF4 RNA-binding domain (Saccharomyces cerevisiae, UniProt P25339 537-888)
- T1 sequence: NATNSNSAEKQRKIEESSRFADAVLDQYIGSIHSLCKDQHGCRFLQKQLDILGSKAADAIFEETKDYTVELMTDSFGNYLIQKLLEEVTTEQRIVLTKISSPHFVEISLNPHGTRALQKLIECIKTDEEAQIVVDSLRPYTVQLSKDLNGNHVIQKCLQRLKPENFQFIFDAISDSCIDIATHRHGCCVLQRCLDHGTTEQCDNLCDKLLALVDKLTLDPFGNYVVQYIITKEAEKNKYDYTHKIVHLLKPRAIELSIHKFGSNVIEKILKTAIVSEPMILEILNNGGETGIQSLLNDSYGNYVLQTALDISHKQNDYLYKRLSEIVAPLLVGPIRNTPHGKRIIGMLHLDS
- experiment: Mg; RNA-MaP; 20 mM Na-HEPES pH 7.4, 30 mM KOAc, 0.75 mM MgCl2, 0.1% Tween-20, 5% glycerol, 0.1 mg/mL BSA, 2 mM DTT; 25 C; 0.0125-409.6 nM protein
- measurement.setup: tags: N-His6-TEV cleaved; C-SNAP kept, Cy3B-labelled; label: tethered on chip by stalled RNA polymerase
quantity.kind: Kd

Ie_S2_P3E.2_K3.1_C3.2_[+-2CC]_H3.1_A3.1_F3.1_T3.2 (ssRNA) RNA: UUUGAUUAAUAUGAUAUCGUUCUUUCUCCCUUGUAUAUAUAUUCUUUCUCGAUAUCAUAUUAAUCUUU
1.07 nM
Id_ii_S2_P4E.2_K4.1_C4.2_[C-2A]_[T-1C]_H4.1_A4.1_F4.1_T4.2_[G10T]_[T11A] (ssRNA) RNA: UUUGAUUAAUAUGAUAUCGUUCUUUCUACUGUAUAUUAUAUUCUUUCUCGAUAUCAUAUUAAUCUUU
0.628 nM
Ic_S4_P4E.1_K4.1_C4.1_H4.1_A4.1_[T5C]_[T7G]_F4.1_[T8C]_[A9T]_T4.1 (ssRNA) RNA: UUUGACAACUGAUCGUUCUUUCUUGUACAGCUUUCUUUCUCGAUCAGUUGUCUUU
55.1 nM
Ic_S4_P4E.1_K4.1_C4.1_H4.1_A4.1_[T5G]_[A6T]_[T7G]_F4.1_[A9C]_T4.1 (ssRNA) RNA: UUUGACAACUGAUCGUUCUUUCUUGUAGUGUCUUCUUUCUCGAUCAGUUGUCUUU
238 nM
Ie_S4_P3E.2_K3.1_C3.2_[+-1CCT]_H3.1_A3.1_F3.1_T3.2 (ssRNA) RNA: UUUGACAACUGAUCGUUCUUUCUCUCCUUGUAUAUAUAUUCUUUCUCGAUCAGUUGUCUUU
0.625 nM

Where do the numbers come from? From paper PMC9352680.
